// data source = PubChem BioAssay (NCATS)

Test system: HEK293T
Assay: qHTS assay to identify novel small-molecules to repurpose for Merkel cell carcinoma treatment (AID 1296009); also: nearly all actives have a fitted effect of over 60% in size
Settings: MCC and control cell lines, CellTiter-Glo viability, 72 h; series mostly up to 44.8 µM
Results filed as inconclusive are left out. Activity calls are given as the source filed them. Calls follow the shape of the dose curve; as a rule, active = well fitted inhibition curve with a large enough effect; inconclusive = small, poorly fitted or top-dose-only effect; inactive = flat fitted curve, though single readings scatter.
metric: outcome

{"columns": ["chemical_string", "result"],
 "data": [
  ["NC(=O)c1cccc(-c2cc(O)cc(OC(=O)NC3CCCCC3)c2)c1", "inactive"],
  ["CC(=O)c1c(C)cc(O[C@@H]2O[C@H](CO)[C@@H](O)[C@H](O)[C@H]2O)cc1O", "inactive"]
]}

---

Assay: qHTS profiling for inhibitors of Plasmodium falciparum (HB3) proliferation (AID 743324);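 also: 100% = DMSO vehicle wells and 0% = artemisinin-treated control wells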
Conditions: Plasmodium falciparum HB3 blood-stage proliferation; at 28.7 µM (top of the series) unless noted
*1 amine or outer side, *2 acyl side, *3 side chain or, on linkers, in order; H or OH if unused. Where a SMILES comes first, the peptide text is derived from it. Non-standard residues stand in square brackets, D forms with d. Residues, ends and D or L forms follow the SMILES beside them. Bridges are numbered along the chain shown (N, C = ends). Roman numbers before positions name the chains, in order. [ ]: non-standard residue; d: D form. ξ: configuration not given here. Actinocin(9to1) = Cc1c2oc3c(C)ccc(C(=O)[*:1])c3nc-2c(C(=O)[*:2])c(N)c1=O; Orn = NCCC[C@H](N)C(=O)O; ξNMeV = CNC(C(=O)O)C(C)C; ξV = CC(C)C(N)C(=O)O; Sar = CNCC(=O)O
metric: remaining proliferation (% of control), lower = more inhibition (%)
Numbers only, in %.

For orientation, consider the following solved cases.
{"columns": ["compound", "reading_unit", "result_number"],
 "data": [
  ["COC(=O)C1=C(C)NC(C)=C(C(=O)OCCCN2CCC(c3ccccc3)(c3ccccc3)CC2)[C@H]1c1cccc([N+](=O)[O-])c1", "%", -0.517],
  ["CC(NC(=O)Cc1cc(F)cc(F)c1)C(=O)NC(C(=O)OC(C)(C)C)c1ccccc1 (configuration not stated)", "%", 104],
  ["CNC1CCN(C(Cc2cccc(-c3ccncc3)c2)C(=O)c2sc3c(F)ccc(F)c3c2Cl)CC1 (configuration not stated)", "%", -0.323],
  ["Cc1c2oc3c(C)ccc(C(=O)N[C@@H]4C(=O)NC(C(C)C)C(=O)N5CCC[C@H]5C(=O)N(C)CC(=O)N(C)C(C(C)C)C(=O)O[C@@H]4C)c3nc-2c(C(=O)N[C@@H]2C(=O)NC(C(C)C)C(=O)N3CCC[C@H]3C(=O)N(C)CC(=O)N(C)C(C(C)C)C(=O)O[C@@H]2C)c(N)c1=O (some centres not stated) (I: T[ξV]P[Sar][ξNMeV] / II: T[ξV]P[Sar][ξNMeV]; ester I:1-I:C, II:1-II:C; linker I:N-II:N via Actinocin(9to1))", "%", -2.59],
  ["NC(=O)Nc1cc(-c2ccc(CN3CCOCC3)c(F)c2)sc1C(=O)N[C@H]1CCCNC1", "%", 2.42]
]}

For each entry beneath this line, provide reported remaining proliferation (% of control), lower = more inhibition.
1. O=C(O)CC/C=C\CC[C@H]1[C@@H](N2CCCCC2)[C@@H](O)C[C@@H]1OCc1ccc(-c2ccccc2)cc1
2. CC(C)C[C@@H]1NC(=O)[C@H](CCCN)NC(=O)[C@H](C(C)C)NC(=O)[C@@H]2CCCN2C(=O)[C@@H](Cc2ccccc2)NC(=O)[C@H](CC(C)C)NC(=O)[C@H](CCCN)NC(=O)[C@H](C(C)C)NC(=O)[C@@H]2CCCN2C(=O)[C@@H](Cc2ccccc2)NC1=O (cyclo(V[Orn]L[dF]PV[Orn]L[dF]P))

OUT:
[76.1, -1.03]
